# PROTOCOL NOTES: CCTE_Shafer_MEA_dev_network_spike_peak: CCTE's Neural Network Formation Assay for Mean Number of Electrodes in Network Spike, Shafer Lab (AID 2284049)
# Procedure: CCTE_Shafer_MEA_dev assay is conducted using Axion Biosystems 48 well microelectrode array (MEA) plates and Maestro recording system. Each well of the MEA plate contains a grid of 16 microelectrodes embedded in the culture surface. Electrically active cells, such as neurons, can be cultured over the electrodes, and electrical activity in these cells can be recorded extracellularly. […]
Activity calls are given as the source filed them. How the source made its calls: active means hit-call score of the fitted dose curve at least 0.9, where 1 is the maximum; inactive means score below 0.9.
Result category, one only: active, inactive

Task item: Test call, this molecule: CN(C)[C@@H]1C(=O)C(C(N)=O)=C(O)[C@@]2(O)C(=O)C3=C(O)c4c(O)cccc4[C@@](C)(O)[C@H]3C[C@@H]12
Reply: inactive

Task item: Test call, this molecule: COC(=O)Nc1nc2ccccc2[nH]1
Reply: active

Task item: Test call, this molecule: Clc1ccc(C(c2ccc(Cl)cc2)C(Cl)Cl)cc1
Reply: active

Task item: Test call, this molecule: ClC1=C(Cl)[C@]2(Cl)[C@H]3[C@H]([C@@H]4C=C[C@H]3C4)[C@@]1(Cl)C2(Cl)Cl
Reply: active

Task item: Test call, this molecule: [Cl-].[Cl-].[Hg+2]
Reply: active

Task item: Test call, this molecule: CC(C)(O)c1cnn2c(-c3ccc(F)c(-c4c(F)cccc4C#N)c3)cnc2n1
Reply: active

Task item: Test call, this molecule: Nc1cc(Cl)cc(C(=O)O)c1Cl
Reply: inactive

Task item: Test call, this molecule: ClC1=C(Cl)C2(Cl)C3C(Cl)C=CC3C1(Cl)C2(Cl)Cl (stereo not drawn)
Reply: active

====

Assignment: determine reported AC50 for the given compounds.
# SYSTEM UNDER TEST: human Neuropeptide Receptor Y1 (NPY1), NPY1R (gene 4886)
# PROTOCOL NOTES: NVS_GPCR_hNPY1: NovaScreen (NVS) G Protein-Coupled Receptor Assay for human Neuropeptide Receptor Y1 (NPY1) (AID 2283276)
Inconclusive results are not listed. The source made the active and inactive calls. Rule for the calls: active = hit-call score of the fitted dose curve at least 0.9, where 1 is the maximum; inconclusive = response in the unintended direction; inactive = score below 0.9.

Reported AC50 ( CCC[CH2][Sn]([Cl])([CH2]CCC)[CH2]CCC ) = 1.58 µM (active)

Reported AC50 ( CCCCCCCCn1sccc1=O ) = 6.28 µM (active)

Reported AC50 ( [Cl-].[Cl-].[Hg+2] ) = 14.7 µM (active)

====

# PROTOCOL NOTES: ATG_Oct_MLP_CIS: Attagene CIS-FACTORIAL HepG2 Assay for human Octamer-Binding Transcription Factor (Oct) (AID 2282993)
# MEASUREMENT SETUP: HepG2 Attagene cis-factorial Oct reporter, mRNA; actives raise or lower the signal
Active and inactive are the calls of the source. Rule for the calls: active = hit-call score of the fitted dose curve at least 0.9, where 1 is the maximum; inactive = score below 0.9.
Result category, one only: active, inactive

Task item: Test call, this molecule: CCCSC(=O)N(CCC)CCC
Reply: inactive

Task item: Test call, this molecule: CC(C)(C)OOC(=O)c1ccccc1
Reply: inactive

Task item: Test call, this molecule: CN(C)[C@@H]1C(=O)C(C(N)=O)=C(O)[C@@]2(O)C(=O)C3=C(O)c4c(O)cccc4[C@@](C)(O)[C@H]3C[C@@H]12
Reply: inactive

Task item: Test call, this molecule: CCN(CC)N=O
Reply: inactive

Task item: Test call, this molecule: O=Cc1ccco1
Reply: inactive

Task item: Test call, this molecule: N#CC(Br)(Br)C(N)=O
Reply: inactive

Task item: Test call, this molecule: [Cl-].[Cl-].[Hg+2]
Reply: inactive

Task item: Test call, this molecule: Cc1ccc(N)c(N)c1
Reply: active

Task item: Test call, this molecule: c1ccc2c(c1)-c1cccc3cccc-2c13
Reply: inactive
